Provenance of the data: patent US11046680B1

# targetOrSystem: human APJ receptor (Homo sapiens (Human))
# Sequence (P35414 whole entry): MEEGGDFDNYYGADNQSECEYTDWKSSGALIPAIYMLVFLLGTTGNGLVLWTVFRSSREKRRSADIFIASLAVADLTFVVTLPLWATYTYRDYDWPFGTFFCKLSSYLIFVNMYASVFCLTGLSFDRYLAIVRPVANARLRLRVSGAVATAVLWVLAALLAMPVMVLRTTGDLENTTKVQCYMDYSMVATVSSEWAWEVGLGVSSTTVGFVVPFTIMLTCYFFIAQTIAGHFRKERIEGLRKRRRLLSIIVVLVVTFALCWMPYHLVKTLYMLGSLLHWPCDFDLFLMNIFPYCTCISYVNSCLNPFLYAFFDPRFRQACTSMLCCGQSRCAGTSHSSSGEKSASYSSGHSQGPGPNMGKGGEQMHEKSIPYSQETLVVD
# testDetails: biochemical
# assaySetup: [35S]GTPγS binding, CHO membranes expressing human APJ receptor; read-out: Activity hAPJ SPA EC50 IP
pEC50: −log10 of the molar value.
Label Met when pEC50 >= 9; otherwise Not met.

// below: answered compounds
COc1cccc(OC)c1-n1c(NS(=O)(=O)[C@@H](C)[C@H](OC)c2ncc(C)cn2)nnc1-c1cnn2ccc(C)cc12 [Example 416.0]; Not met
COCC1(n2c(NS(=O)(=O)[C@@H](C)[C@@H](OC(C)C)c3ncc(C)cn3)nnc2-c2ccn(C)n2)CC1 [Example 462.0]; Not met
COc1cccc(OC)c1-n1c(NS(=O)(=O)[C@H](C)Cc2ncc(F)cn2)nnc1-c1nc(C(C)C)cs1 [Example 156.0]; Met
COc1cccc(OC)c1-n1c(NS(=O)(=O)[C@@H](C)[C@H](OC)c2ncc(Cl)cn2)nnc1-c1c[nH]cn1 [Example 523.0]; Not met
COc1ccccc1-n1c(NS(=O)(=O)CCc2ccc(Cl)cc2)nnc1-c1cccs1 [Example 236.0]; Not met
COc1ccc(N2CCC2=O)cc1-n1c(NS(=O)(=O)CCc2ccc(F)cc2C#N)nnc1-c1cccs1 [Example 132.0]; Met

// query # bool: pEC50 of COc1cccc(OC)c1-n1c(NS(=O)(=O)CCc2ncc(F)cn2)nnc1-c1nc(C(C)C)cs1 [Example 96.0] >= 9
// result Not met

// query Reported pEC50 reaches at least 9 for COc1cccc(OC)c1-n1c(NS(=O)(=O)[C@@H](C)[C@H](OC)c2ncc(C)cn2)nnc1-c1noc2ccc(Br)cc12 [Example 414.0] ?
// result Not met

// query Hi team, for COc1ccc(C(=O)O)cc1-n1c(NS(=O)(=O)Cc2ccc(Cl)cc2)nnc1-c1cccs1 [Example 384.0] , is the recorded pEC50 at or above 9?
// result Not met

// query Decide: pEC50 of COc1ccccc1-n1c(NS(=O)(=O)Cc2ccc(Cl)cc2)nnc1-c1cccs1 [Example 385.0] >= 9?
// result Not met
